# Experimental system: ABCC4 (Homo sapiens, UniProt O15439)
# Construct: ABCC4 was present in both HBEC6-KT and Calu-3 cells at all-time points, indicated by the bands present at 150 kDa; endogenous in cells; host or cells: HBEC6-KT (immortalized human bronchial epithelial cells)
# Sequence (O15439 whole entry): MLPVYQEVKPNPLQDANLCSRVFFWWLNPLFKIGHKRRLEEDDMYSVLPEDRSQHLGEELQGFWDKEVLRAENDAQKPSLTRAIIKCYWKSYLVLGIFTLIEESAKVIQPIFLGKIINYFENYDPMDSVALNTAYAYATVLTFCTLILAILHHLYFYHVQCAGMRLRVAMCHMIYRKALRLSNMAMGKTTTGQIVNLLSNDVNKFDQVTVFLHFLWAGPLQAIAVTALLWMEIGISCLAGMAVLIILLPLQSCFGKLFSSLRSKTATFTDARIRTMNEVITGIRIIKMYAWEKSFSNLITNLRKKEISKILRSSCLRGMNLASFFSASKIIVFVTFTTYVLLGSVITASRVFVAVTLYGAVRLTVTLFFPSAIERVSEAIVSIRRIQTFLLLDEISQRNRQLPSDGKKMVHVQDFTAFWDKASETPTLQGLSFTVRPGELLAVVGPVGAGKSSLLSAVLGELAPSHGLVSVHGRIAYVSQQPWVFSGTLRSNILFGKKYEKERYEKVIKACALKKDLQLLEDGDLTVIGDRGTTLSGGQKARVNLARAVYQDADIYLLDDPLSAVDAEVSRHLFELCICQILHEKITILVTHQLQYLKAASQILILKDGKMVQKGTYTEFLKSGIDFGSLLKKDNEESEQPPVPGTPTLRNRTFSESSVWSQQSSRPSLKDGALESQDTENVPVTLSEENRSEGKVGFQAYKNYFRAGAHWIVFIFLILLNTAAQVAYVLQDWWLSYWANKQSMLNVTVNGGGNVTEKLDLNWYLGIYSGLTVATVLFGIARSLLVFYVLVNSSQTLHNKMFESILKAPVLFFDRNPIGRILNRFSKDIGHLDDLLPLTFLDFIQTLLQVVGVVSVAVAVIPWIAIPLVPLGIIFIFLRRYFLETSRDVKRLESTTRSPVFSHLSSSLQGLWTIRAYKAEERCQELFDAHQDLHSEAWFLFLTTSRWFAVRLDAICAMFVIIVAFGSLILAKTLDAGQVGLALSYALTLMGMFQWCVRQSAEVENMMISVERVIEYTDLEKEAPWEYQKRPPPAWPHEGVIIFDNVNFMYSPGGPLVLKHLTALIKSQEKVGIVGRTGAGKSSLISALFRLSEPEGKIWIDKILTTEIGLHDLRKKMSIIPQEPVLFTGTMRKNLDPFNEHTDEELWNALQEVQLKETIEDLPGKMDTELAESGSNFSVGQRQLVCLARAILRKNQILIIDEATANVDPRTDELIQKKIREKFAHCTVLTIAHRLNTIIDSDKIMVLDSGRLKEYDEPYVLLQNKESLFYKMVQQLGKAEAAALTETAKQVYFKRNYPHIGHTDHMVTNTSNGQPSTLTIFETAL
# Protocol details: In vitro extracellular cAMP assay of ABCC4 inhibitors in HBEC6-KT cells
# Format: cell-based
# Measurement conditions: IBMX 20 μM pre-treatment, forskolin 10 μM, normalized to IBMX + forskolin, read-out: half maximal inhibitory concentration (IC50), extracellular cAMP
Measure: IC50 (µM)
Kindly answer with a numeric value in µM, unit omitted.

Data request: Give the measured IC50 of Cn1c(CSc2nc3ccccc3s2)n[nH]c1=S .
Data returned: 4.8

====

# Test system: CFTR
# Protocol details: In vitro CFTR membrane potential assay in Calu-3 cells
# Assay type: cell-based, human
# Measurement conditions: Calu-3; isoproterenol (ISO) curve with agent vs DMSO control; same agent concentrations as E5
Measure: AUC of concentration–response curve, CFTR activity

# Compound, Result
records = [
    ("O=C(Nc1c(Cl)cncc1Cl)c1ccc(OC(F)F)c(OCC2CC2)c1", "significant increases"),
    ("COc1ccc(C2CNC(=O)C2)cc1OC1CCCC1 (stereo not drawn)", "significant increases"),
]

====

# Tested on: CFTR
# Protocol details: In vitro CFTR membrane potential assay in Calu-3 cells
# Assay type: cell-based, human
# Measurement conditions: Calu-3; forskolin (FSK) curve with agent vs DMSO control
Measure: EC50 of concentration–response curve, CFTR activity

# Molecule, Result
data = [
    ("O=C(Nc1c(Cl)cncc1Cl)c1ccc(OC(F)F)c(OCC2CC2)c1 [Roflumilast]", "not different"),
    ("COc1ccc(C2CNC(=O)C2)cc1OC1CCCC1 (centres unmarked) [Rolipram]", "not different"),
]

====

# System: CFTR
# Protocol details: In vitro CFTR membrane potential assay in Calu-3 cells
# Type: cell-based, human
# Measurement conditions: Calu-3; isoproterenol (ISO) curve with agent vs DMSO control
Measure: EC50 of concentration–response curve, CFTR activity

# Compound, Result
measured = [
    ("O=C(Nc1c(Cl)cncc1Cl)c1ccc(OC(F)F)c(OCC2CC2)c1", "not different"),
    ("COc1ccc(C2CNC(=O)C2)cc1OC1CCCC1 (centres unmarked)", "not different"),
]

====

# Experimental system: ABCC4 (Homo sapiens)
# Construct: ABCC4 was present in both HBEC6-KT and Calu-3 cells at all-time points, indicated by the bands present at 150 kDa; endogenous in cells; host or cells: HBEC6-KT (immortalized human bronchial epithelial cells)
# Protocol details: In vitro extracellular cAMP assay of ABCC4 inhibitors in Calu-3 cells
# Format: cell-based
# Measurement conditions: IBMX 20 μM pre-treatment, forskolin 10 μM, normalized to IBMX + forskolin, read-out: half maximal inhibitory concentration (IC50), extracellular cAMP
Measure: IC50

Data request: For the molecule Cn1c(CSc2nc3ccccc3s2)n[nH]c1=S [Ceefourin-1] , what IC50 is on record?
Data returned: 700 nM
